Tested on: Sweetpotato Whitefly-Crawler (Bemisia Tabaci)
Test: Insecticidal test for sweetpotato whitefly-crawler in foliar spray assay (col. BEMITA)
Assay type: in vivo
Conditions: Bemisia tabaci, sweetpotato whitefly-crawler, read-out: BEMITA 200 ppm (Corrected % Control, rating)
assay.metric: pest or weed control at 200 ppm

[[record]]
compound = "CN(C(=O)CC[S+](C)[O-])c1sc(-c2cncc(F)c2)nc1F (stereo not drawn) [Compound 392]"
assay_metric = "pest or weed control at 200 ppm"
value_reported = "80 to 100%"

[[record]]
compound = "Cc1nc(-c2cccnc2)sc1N1CCCC1=O [Compound 211]"
assay_metric = "pest or weed control at 200 ppm"
value_reported = "80 to 100%"

[[record]]
compound = "CSCC(C)(C)C(=O)N(C)c1cnc(-c2cncc(F)c2)s1 [Compound 18]"
assay_metric = "pest or weed control at 200 ppm"
value_reported = "80 to 100%"

[[record]]
compound = "CSCCC(=O)N(C(=O)CCSC)c1sc(-c2cncc(F)c2)nc1C [Compound 185]"
assay_metric = "pest or weed control at 200 ppm"
value_reported = "80 to 100%"

[[record]]
compound = "CCc1nc(-c2cccnc2)sc1N(C)C(=O)C(C)C [Compound 48]"
assay_metric = "pest or weed control at 200 ppm"
value_reported = "80 to 100%"

[[record]]
compound = "CN(C(=O)CC[S+](C)[O-])c1sc(-c2cncc(F)c2)nc1Cl (stereo not drawn) [Compound 272]"
assay_metric = "pest or weed control at 200 ppm"
value_reported = "80 to 100%"

[[record]]
compound = "CC(C)(C)OC(=O)N(C(=O)OC(C)(C)C)c1cnc(-c2cccnc2)s1 [Compound 422]"
assay_metric = "pest or weed control at 200 ppm"
value_reported = "< 80%"

[[record]]
compound = "CCN(C(=O)CC[S+](C)[O-])c1sc(-c2cncc(F)c2)nc1C (stereo not drawn) [Compound 256]"
assay_metric = "pest or weed control at 200 ppm"
value_reported = "80 to 100%"

[[record]]
compound = "CSCCC(=O)Nc1sc(-c2cncc(F)c2)nc1Br [Compound 298]"
assay_metric = "pest or weed control at 200 ppm"
value_reported = "< 80%"

[[record]]
compound = "CC(C)C(=O)N(C)c1sc(-c2cccnc2)nc1C(F)(F)F [Compound 46]"
assay_metric = "pest or weed control at 200 ppm"
value_reported = "< 80%"

[[record]]
compound = "Cc1nc(-c2cccnc2)sc1N(CC(C)C)C(=O)OC(C)(C)C [Compound 14]"
assay_metric = "pest or weed control at 200 ppm"
value_reported = "80 to 100%"

[[record]]
compound = "Cc1nc(-c2cncc(F)c2)sc1NC(=O)C(C)(C)CS(C)(=O)=O [Compound 144]"
assay_metric = "pest or weed control at 200 ppm"
value_reported = "< 80%"

[[record]]
compound = "CSCCC(=O)N(C)c1sc(-c2cccnc2)nc1C(F)(F)F [Compound 43]"
assay_metric = "pest or weed control at 200 ppm"
value_reported = "80 to 100%"

[[record]]
compound = "COc1cncc(-c2nc(C)c(N(C(=O)OC(C)(C)C)C(=O)C(C)CSC)s2)c1 (stereo not drawn) [Compound 176]"
assay_metric = "pest or weed control at 200 ppm"
value_reported = "< 80%"

[[record]]
compound = "CSCC(C)C(=O)N(Cc1ccccc1)c1sc(-c2cccnc2)nc1C (stereo not drawn) [Compound 221]"
assay_metric = "pest or weed control at 200 ppm"
value_reported = "< 80%"

[[record]]
compound = "CSCC(C)C(=O)N(C)c1sc(-c2cncnc2)nc1C (stereo not drawn) [Compound 52]"
assay_metric = "pest or weed control at 200 ppm"
value_reported = "80 to 100%"

[[record]]
compound = "CN(C(=O)C(C)(C)C[S+](C)[O-])c1cnc(-c2cccnc2)s1 (stereo not drawn) [Compound 80]"
assay_metric = "pest or weed control at 200 ppm"
value_reported = "80 to 100%"

[[record]]
compound = "Cc1nc(-c2cccnc2)sc1NC(=O)c1cscn1 [Compound 340]"
assay_metric = "pest or weed control at 200 ppm"
value_reported = "< 80%"

[[record]]
compound = "Cc1nc(-c2cccnc2)sc1NC(=O)C(C)C[S+](C)[O-] (stereo not drawn) [Compound 92]"
assay_metric = "pest or weed control at 200 ppm"
value_reported = "< 80%"

[[record]]
compound = "CSCC(C)C(=O)Nc1sc(-c2cncc(F)c2)nc1Br (stereo not drawn) [Compound 299]"
assay_metric = "pest or weed control at 200 ppm"
value_reported = "80 to 100%"

[[record]]
compound = "CCOC(=O)N(C)c1cnc(-c2cncc(F)c2)s1 [Compound 76]"
assay_metric = "pest or weed control at 200 ppm"
value_reported = "80 to 100%"

[[record]]
compound = "Cc1nc(-c2cncc(F)c2)sc1NC(=O)C(C)CS(C)(=O)=O (stereo not drawn) [Compound 146]"
assay_metric = "pest or weed control at 200 ppm"
value_reported = "< 80%"

[[record]]
compound = "CC(C)(C)OC(=O)Nc1sc(-c2cccnc2)nc1C(F)(F)F [Compound 7]"
assay_metric = "pest or weed control at 200 ppm"
value_reported = "< 80%"

[[record]]
compound = "CN(C(=O)C(F)(F)F)c1cnc(-c2cncc(F)c2)s1 [Compound 1]"
assay_metric = "pest or weed control at 200 ppm"
value_reported = "80 to 100%"

[[record]]
compound = "CSCC(C)C(=O)Nc1sc(-c2cncc(C)c2)nc1C (stereo not drawn) [Compound 171]"
assay_metric = "pest or weed control at 200 ppm"
value_reported = "< 80%"

[[record]]
compound = "Cc1nc(-c2cccnc2)sc1N(C)C(=O)c1cscn1 [Compound 365]"
assay_metric = "pest or weed control at 200 ppm"
value_reported = "< 80%"

[[record]]
compound = "CCN(C(=O)CCSC)c1sc(-c2cccnc2)nc1-c1ccccc1 [Compound 61]"
assay_metric = "pest or weed control at 200 ppm"
value_reported = "< 80%"

[[record]]
compound = "CCS(=O)(=O)N1CCCC(C(=O)N(C)c2sc(-c3cccnc3)nc2Cl)C1 (stereo not drawn) [Compound 394]"
assay_metric = "pest or weed control at 200 ppm"
value_reported = "80 to 100%"

[[record]]
compound = "COc1cncc(-c2nc(C)c(NC(=O)OC(C)(C)C)s2)c1 [Compound 175]"
assay_metric = "pest or weed control at 200 ppm"
value_reported = "< 80%"

[[record]]
compound = "CC(C[S+](C)[O-])C(=O)N(C)c1sc(-c2cccnc2)nc1C(F)(F)F (stereo not drawn) [Compound 89]"
assay_metric = "pest or weed control at 200 ppm"
value_reported = "80 to 100%"


----------
assay.metric: melting point

[[record]]
compound = "CCN(C(=O)c1cc(Cl)cc(Cl)c1)c1sc(-c2cccnc2)nc1Cl"
assay_metric = "melting point"
value_reported = "172 to 174 °C"

[[record]]
compound = "C=CC(=O)Nc1sc(-c2cncc(F)c2)nc1C#N"
assay_metric = "melting point"
value_reported = "231 to 232 °C"

[[record]]
compound = "Cc1nc(-c2cncc(F)c2)sc1NC(=O)CCS(C)(=O)=O"
assay_metric = "melting point"
value_reported = "230 to 232 °C"

[[record]]
compound = "CCCC(C)OC(=O)Nc1sc(-c2cccnc2)nc1C (stereo not shown)"
assay_metric = "melting point"
value_reported = "88 to 94 °C"

[[record]]
compound = "CCSCC(=O)Nc1sc(-c2cccnc2)nc1C"
assay_metric = "melting point"
value_reported = "157 to 158 °C"

[[record]]
compound = "CSC(C)(C)CC(=O)Nc1sc(-c2cncc(F)c2)nc1C"
assay_metric = "melting point"
value_reported = "123 to 126 °C"

[[record]]
compound = "CC(CS(C)(=O)=O)C(=O)N(C)c1sc(-c2cncc(F)c2)nc1Cl (stereo not shown)"
assay_metric = "melting point"
value_reported = "151 to 154 °C"

[[record]]
compound = "COCC(C)(C)OC(=O)Nc1sc(-c2cccnc2)nc1C"
assay_metric = "melting point"
value_reported = "120 to 123 °C"

[[record]]
compound = "CN(C(=O)C(C)(C)C)c1cnc(-c2cncc(F)c2)s1"
assay_metric = "melting point"
value_reported = "153 to 155 °C"

[[record]]
compound = "CC(CS(C)(=O)=O)C(=O)Nc1sc(-c2cncc(F)c2)nc1Br (stereo not shown)"
assay_metric = "melting point"
value_reported = "185 to 188 °C"


----------
System: Sweetpotato Whitefly-Crawler (Bemisia Tabaci)
Assay: Insecticidal test for sweetpotato whitefly-crawler in foliar spray assay (col. BEMITA)
Format: in vivo
Conditions: Bemisia tabaci, sweetpotato whitefly-crawler, read-out: BEMITA 200 ppm (Corrected % Control, rating)
Experimental: The compounds were tested against cotton aphid, green peach aphid, and sweet potato whitefly using procedures described in the following examples and reported in Table 2. In each case of Table 2, the rating scale is as follows at 200 ppm. Insecticidal Test for Sweetpotato Whitefly-Crawler (Bemisia Tabaci) in Foliar Spray Assay Cotton plants grown in 3-inch pots, with 1 small (3-5 cm) true leaf, were used as test substrate. The plants were placed in a room with whitefly adults. […]
assay.metric: pest or weed control at 200 ppm

[[record]]
molecule = "CSCC(=O)N(C)c1sc(-c2cccnc2)nc1C"
value_reported = "< 80%"

[[record]]
molecule = "CN(C(=O)CC[S+](C)[O-])c1sc(-c2cccnc2)nc1C(F)(F)F (stereo not shown)"
value_reported = "80 to 100%"

[[record]]
molecule = "CSC(C)C(=O)N(C)c1sc(-c2cccnc2)nc1C (stereo not shown)"
value_reported = "< 80%"

[[record]]
molecule = "Cc1nc(-c2cncc(C#N)c2)sc1NC(=O)OC(C)(C)C"
value_reported = "< 80%"

[[record]]
molecule = "CSCCC(=O)N(C)c1sc(-c2cncc(F)c2)nc1C"
value_reported = "80 to 100%"

[[record]]
molecule = "Cc1nc(-c2cccnc2)sc1NC(=O)C(C)(C)CS(C)(=O)=O"
value_reported = "80 to 100%"

[[record]]
molecule = "CSCCN(C)C(=O)N(C)c1cnc(-c2cncc(F)c2)s1"
value_reported = "80 to 100%"

